Tested on: A. fumigatus
test parameters: in vitro
Numbered stars: 1 amine (or outer) side, 2 acyl side, 3 side chain; on linkers, the order of the positions; unused ones are H or OH. Bridge positions count the residues as written; N and C are the ends. Square brackets hold non-standard residues; d marks the D form. Peptide text beside a SMILES is read from it. * marks the point of attachment. ξ: configuration not given here. pTerphenylCO(4''-OnC5H11) = CCCCCOc1ccc(-c2ccc(-c3ccc(C(=O)*)cc3)cc2)cc1; Orn(4R-OH,5R-OH) = O=C([C@H](C[C@@H](O)[C@@H](O)N[*:3])N[*:1])[*:2]; Pro(3S-OH,4S-Me) = C[C@H]1CN[C@H](C(=O)O)[C@H]1O; hTyr(3R-OH) = N[C@H](C(=O)O)[C@H](O)Cc1ccc(O)cc1; Hyp = O=C(O)[C@@H]1C[C@@H](O)CN1; Thr(3ξ) = CC(O)[C@H](N)C(=O)O
observable: Minimal Inhibitory Concentration MIC A. fumigatus (µg/mL)

- molecule: "CCCCCOc1ccc(-c2ccc(-c3ccc(C(=O)N[C@H]4CCCCNC(=O)[C@@H]5[C@@H](O)[C@@H](C)CN5C(=O)[C@H](C(C)O)NC(=O)[C@H]([C@H](O)Cc5ccc(O)cc5)NC(=O)[C@@H]5C[C@@H](O)CN5C(=O)[C@H](C(C)O)NC4=O)cc3)cc2)cc1 (stereo partly drawn) [Compound E1-5] ({pTerphenylCO(4''-OnC5H11)}-K[Thr(3ξ)][Hyp][hTyr(3R-OH)][Thr(3ξ)][Pro(3S-OH,4S-Me)]; lactam 1-C)"
  value units: "µg/mL"
  observed measurement: 2.5
- molecule: "CCCCCOc1ccc(-c2ccc(-c3ccc(C(=O)N[C@H]4C[C@@H](O)[C@@H](O)NC(=O)[C@@H]5[C@@H](O)[C@@H](C)CN5C(=O)[C@H](C(C)O)NC(=O)[C@H]([C@H](O)Cc5ccc(O)cc5)NC(=O)[C@@H]5C[C@@H](O)CN5C(=O)[C@H](C(C)O)NC4=O)cc3)cc2)cc1 (stereo partly drawn) [Compound C1, reference compound] ({pTerphenylCO(4''-OnC5H11)}-[Orn(4R-OH,5R-OH)][Thr(3ξ)][Hyp][hTyr(3R-OH)][Thr(3ξ)][Pro(3S-OH,4S-Me)]; lactam 1-C)"
  value units: "µg/mL"
  observed measurement: 0.02

* * *

System: C. albicans
test parameters: in vitro
Counter-ions that a name gives are not always drawn. Numbered stars: 1 amine (or outer) side, 2 acyl side, 3 side chain; on linkers, the order of the positions; unused ones are H or OH. Bridge positions count the residues as written; N and C are the ends. Square brackets hold non-standard residues; d marks the D form. Peptide text beside a SMILES is read from it. * marks the point of attachment. ξ: configuration not given here. pTerphenylCO(4''-OnC5H11) = CCCCCOc1ccc(-c2ccc(-c3ccc(C(=O)*)cc3)cc2)cc1; Orn(4R-OH,5R-OH) = O=C([C@H](C[C@@H](O)[C@@H](O)N[*:3])N[*:1])[*:2]; Pro(3S-OH,4S-Me) = C[C@H]1CN[C@H](C(=O)O)[C@H]1O; hTyr(3R-OH) = N[C@H](C(=O)O)[C@H](O)Cc1ccc(O)cc1; Hyp = O=C(O)[C@@H]1C[C@@H](O)CN1; Thr(3ξ) = CC(O)[C@H](N)C(=O)O; Orn = NCCC[C@H](N)C(=O)O; Dap = NC[C@H](N)C(=O)O
Please mark label 1 if the recorded Minimal Inhibitory Concentration MIC C. albicans is equal to or greater than 0.04 µg/mL, and label 0 if it falls below.

- compound: "CCCCCOc1ccc(-c2ccc(-c3ccc(C(=O)N[C@H]4CCCNC(=O)[C@@H]5[C@@H](O)[C@@H](C)CN5C(=O)[C@H](C(C)O)NC(=O)[C@H]([C@H](O)Cc5ccc(O)cc5)NC(=O)[C@@H]5C[C@@H](O)CN5C(=O)[C@H](Cc5ccc(O)cc5)NC4=O)cc3)cc2)cc1 (stereo partly drawn) [Compound E5-7] ({pTerphenylCO(4''-OnC5H11)}-[Orn]Y[Hyp][hTyr(3R-OH)][Thr(3ξ)][Pro(3S-OH,4S-Me)]; lactam 1-C)"
  answer label: "label 1"
- compound: "CCCCCOc1ccc(-c2ccc(-c3ccc(C(=O)N[C@H]4CCN(C(=O)CN)NC(=O)[C@@H]5[C@@H](O)[C@@H](C)CN5C(=O)[C@H](C(C)O)NC(=O)[C@H]([C@H](O)Cc5ccc(O)cc5)NC(=O)[C@@H]5C[C@@H](O)CN5C(=O)[C@H](C(C)O)NC4=O)cc3)cc2)cc1 (some centres unmarked) [Compound E2-12]"
  answer label: "label 0"
- compound: "CCCCCOc1ccc(-c2ccc(-c3ccc(C(=O)N[C@H]4CCN(C(=O)C(N)CN)NC(=O)[C@@H]5[C@@H](O)[C@@H](C)CN5C(=O)[C@H](C(C)O)NC(=O)[C@H]([C@H](O)Cc5ccc(O)cc5)NC(=O)[C@@H]5C[C@@H](O)CN5C(=O)[C@H](C(C)O)NC4=O)cc3)cc2)cc1 (single isomer, unassigned) [E2-13 (isomer 2)]"
  answer label: "label 1"
- compound: "CCCCCOc1ccc(-c2ccc(-c3ccc(C(=O)N[C@H]4C[C@@H](O)[C@@H](O)NC(=O)[C@@H]5[C@@H](O)[C@@H](C)CN5C(=O)[C@H](C(C)O)NC(=O)[C@H]([C@H](O)Cc5ccc(O)cc5)NC(=O)[C@@H]5C[C@@H](O)CN5C(=O)[C@H](C(C)O)NC4=O)cc3)cc2)cc1 (stereo partly drawn) [Compound C1, reference compound] ({pTerphenylCO(4''-OnC5H11)}-[Orn(4R-OH,5R-OH)][Thr(3ξ)][Hyp][hTyr(3R-OH)][Thr(3ξ)][Pro(3S-OH,4S-Me)]; lactam 1-C)"
  answer label: "label 0"
- compound: "CCCCCOc1ccc(-c2ccc(-c3ccc(C(=O)N[C@H]4CCN(C)NC(=O)[C@@H]5[C@@H](O)[C@@H](C)CN5C(=O)[C@H](C(C)O)NC(=O)[C@H]([C@H](O)Cc5ccc(O)cc5)NC(=O)[C@@H]5C[C@@H](O)CN5C(=O)[C@H](C(C)O)NC4=O)cc3)cc2)cc1 (single isomer, unassigned) [E2-11(a) HCl salt]"
  answer label: "label 0"
- compound: "CCCCCOc1ccc(-c2ccc(-c3ccc(C(=O)N[C@H]4CNC(=O)[C@H](CN)NC(=O)[C@@H]5[C@@H](O)[C@@H](C)CN5C(=O)[C@H](C(C)O)NC(=O)[C@H]([C@H](O)Cc5ccc(O)cc5)NC(=O)[C@@H]5C[C@@H](O)CN5C(=O)[C@H](C(C)O)NC4=O)cc3)cc2)cc1 (stereo partly drawn) [Compound E8-8] ({pTerphenylCO(4''-OnC5H11)}-[Dap][Thr(3ξ)][Hyp][hTyr(3R-OH)][Thr(3ξ)][Pro(3S-OH,4S-Me)][Dap]; lactam 1-C)"
  answer label: "label 1"
- compound: "CCCCCOc1ccc(-c2ccc(-c3ccc(C(=O)N[C@H]4CCN(C(=O)C(N)CN)NC(=O)[C@@H]5[C@@H](O)[C@@H](C)CN5C(=O)[C@H](C(C)O)NC(=O)[C@H]([C@H](O)Cc5ccc(O)cc5)NC(=O)[C@@H]5C[C@@H](O)CN5C(=O)[C@H](C(C)O)NC4=O)cc3)cc2)cc1 (single isomer, unassigned) [E2-13 (isomer 1)]"
  answer label: "label 1"
